Tested on: HCI-016 (organoid from a triple-negative breast cancer xenograft)
Assay: CTG-3D luminescence at 96 h relative to day-0 seeding control (ratio to day 0); higher = more growth / less cytotoxicity; PDxO 3D drug screen, 96 h, CTG-3D normalised to day-0 seeding control.
Conditions: 100 µM; days in culture: 199
ENDPOINT_LABEL: CTG-3D luminescence at 96 h

>>> observed_measurement("Cc1cc(Nc2ncnc3ccc(NC4=NC(C)(C)CO4)cc23)ccc1Oc1ccn2ncnc2c1")
0.019
>>> observed_measurement("O=C(/C=C/c1cccnc1)NCCCCC1CCN(C(=O)c2ccccc2)CC1")
0.0134
>>> observed_measurement("COc1cccc2c1C(=O)c1c(O)c3c(c(O)c1C2=O)C[C@@](O)(C(=O)CO)C[C@@H]3O[C@H]1C[C@H](N)[C@H](O)[C@H](C)O1")
0.0264
>>> observed_measurement("CCN1CCN(Cc2ccc(Nc3ncc(F)c(-c4cc(F)c5nc(C)n(C(C)C)c5c4)n3)nc2)CC1")
0.00916
>>> observed_measurement("NC(=O)Nc1cc(-c2cccc(F)c2)sc1C(=O)N[C@H]1CCCNC1")
-0.00099
>>> observed_measurement("NC1(C(=O)N[C@@H](CCO)c2ccc(Cl)cc2)CCN(c2nc[nH]c3nccc2-3)CC1")
0.407
>>> observed_measurement("C[C@]12CC[C@@H]3c4ccc(O)cc4C[C@@H](CCCCCCCCC[S+]([O-])CCCC(F)(F)C(F)(F)F)[C@H]3[C@@H]1CC[C@@H]2O (some centres not stated)")
1.44
>>> observed_measurement("CC(=O)O[C@H]1C(=O)[C@@]2(C)[C@H]([C@H](OC(=O)c3ccccc3)[C@]3(O)C[C@H](OC(=O)[C@H](O)[C@@H](NC(=O)c4ccccc4)c4ccccc4)C(C)=C1C3(C)C)[C@]1(OC(C)=O)CO[C@@H]1C[C@@H]2O")
0.484
>>> observed_measurement("C=CC(=O)N1CCC[C@@H](n2nc(-c3ccc(Oc4ccccc4)cc3)c3c(N)ncnc32)C1")
-0.00558
>>> observed_measurement("C[C@H](NC(=O)CCC(F)(F)F)C(=O)N[C@@H]1C(=O)N(CCO)c2ncccc2-c2ccccc21")
1.73
>>> observed_measurement("CS(=O)(=O)c1ccc(C(=O)Nc2ccc(Cl)c(-c3ccccn3)c2)c(Cl)c1")
0.655
>>> observed_measurement("Nc1ccn([C@@H]2O[C@H](CO)[C@@H](O)C2(F)F)c(=O)n1")
0.0387
